Where these numbers come from: ChEMBL document CHEMBL5528029

Molecular target: Discoidin domain-containing receptor 2 (Homo sapiens) (UniProt Q16832)
Sequence (whole entry): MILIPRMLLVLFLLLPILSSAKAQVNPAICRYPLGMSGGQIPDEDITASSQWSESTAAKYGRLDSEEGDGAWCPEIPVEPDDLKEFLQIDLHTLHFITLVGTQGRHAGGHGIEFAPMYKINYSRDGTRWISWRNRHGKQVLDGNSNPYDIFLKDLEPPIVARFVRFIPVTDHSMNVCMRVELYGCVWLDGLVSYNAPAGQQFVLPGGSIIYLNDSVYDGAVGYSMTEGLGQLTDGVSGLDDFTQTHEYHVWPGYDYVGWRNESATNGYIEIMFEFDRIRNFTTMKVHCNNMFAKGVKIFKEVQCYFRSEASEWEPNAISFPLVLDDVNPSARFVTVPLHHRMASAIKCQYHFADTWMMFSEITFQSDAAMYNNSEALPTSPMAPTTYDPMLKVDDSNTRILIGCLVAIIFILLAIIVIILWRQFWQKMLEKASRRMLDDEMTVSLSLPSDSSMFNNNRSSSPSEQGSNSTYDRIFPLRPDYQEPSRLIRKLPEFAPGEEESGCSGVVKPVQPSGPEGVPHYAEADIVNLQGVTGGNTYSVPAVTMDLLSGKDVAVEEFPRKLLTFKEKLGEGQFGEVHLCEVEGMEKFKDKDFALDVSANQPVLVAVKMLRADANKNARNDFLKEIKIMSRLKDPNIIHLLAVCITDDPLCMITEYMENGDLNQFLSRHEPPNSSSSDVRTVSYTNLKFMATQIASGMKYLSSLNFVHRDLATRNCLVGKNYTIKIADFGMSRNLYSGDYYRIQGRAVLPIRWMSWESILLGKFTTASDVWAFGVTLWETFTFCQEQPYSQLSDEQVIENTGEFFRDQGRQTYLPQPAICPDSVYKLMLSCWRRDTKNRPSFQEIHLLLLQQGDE
Test: Inhibition of DDR2 (unknown origin) assessed as remaining activity at 1 uM using fluorescein-poly GAT as substrate in presence of ATP by TR-FRET assay relative to control
Could you label it true (1) if measured Activity is 70% or higher, and false (0) otherwise?

[[record]]
molecular_string = "O=C(NCc1cn(CC(=O)N2CCCCC2)c2ccc(F)cc12)Nc1ccccc1Cl"
class_name = "false (0)"

[[record]]
molecular_string = "O=C(NCc1cn(CC(=O)N2CCOCC2)c2ccc(F)cc12)Nc1ccc(F)cc1F"
class_name = "false (0)"

[[record]]
molecular_string = "Cc1ccc(NC(=O)NCc2cn(CC(=O)N3CCN(C)CC3)c3ccc(F)cc23)cc1"
class_name = "true (1)"

[[record]]
molecular_string = "Cc1ccc(NC(=O)NCc2cn(CC(=O)N3CCOCC3)c3ccc(F)cc23)cc1"
class_name = "true (1)"

[[record]]
molecular_string = "O=C(NCc1cn(CC(=O)N2CCOCC2)c2ccc(F)cc12)Nc1ccc(C(F)(F)F)cc1"
class_name = "true (1)"

[[record]]
molecular_string = "COc1ccc2c(c1)c(CNC(=O)Nc1ccc(C(F)(F)F)cc1)cn2CC(=O)N1CCCCC1"
class_name = "true (1)"

[[record]]
molecular_string = "COc1ccc2c(c1)c(CNC(=O)Nc1ccc(C)cc1)cn2CC(=O)N1CCCC1"
class_name = "true (1)"

[[record]]
molecular_string = "COc1ccc(NC(=O)NCc2cn(CC(=O)N3CCCCC3)c3ccc(OC)cc23)cc1"
class_name = "true (1)"

[[record]]
molecular_string = "O=C(NCc1cn(CC(=O)N2CCOCC2)c2ccc(F)cc12)Nc1ccccc1Cl"
class_name = "false (0)"

